- measurement.description: in vitro
- test.conditions: human, hepg2 cells
measure.name: CC50 at 72 h

// solved cases for CC50 at 72 h follow
C[C@H](NP(=O)(OC[C@@]1(F)O[C@@](C#N)(c2cnc3c(N)ncnn23)[C@H](O)[C@@H]1O)Oc1cccc2ccccc12)C(=O)OCC(C)(C)C (stereo partly drawn) : 1 to 10 µM
Nc1nc(F)nc2c1ncn2[C@@H]1O[C@](F)(CO)[C@@H](O)[C@H]1O : < 1 µM
Nc1nc(Cl)c2ccn([C@@H]3O[C@](F)(CO)[C@@H](O)[C@H]3O)c2n1 : 10 to 99 µM
CC(C)OC(=O)[C@H](C)NP(=O)(OC[C@@]1(F)O[C@@H](n2cnc3c(=O)[nH]c(N)nc32)C(F)(F)[C@@H]1O)Oc1ccccc1 (stereo partly drawn) : > 99 µM
CC(C)OC(=O)[C@H](C)N[P@@](=O)(OC[C@@]1(F)O[C@@H](n2ccc3c(N)ncnc32)[C@H](O)[C@@H]1O)Oc1ccccc1 : > 99 µM
COc1ncnc2c1ccn2[C@@H]1O[C@](F)(CO)C[C@H]1O : > 99 µM

Give one value of CC50 at 72 h per listed molecule.
1. CSc1nc(N)nc2c1ncn2[C@@H]1O[C@](F)(CO)[C@@H](O)[C@H]1O
2. C[C@]1(O)[C@H](n2ccc3c(N)ncnc32)O[C@](F)(CO)[C@H]1O
3. CC(C)OC(=O)[C@H](C)N[P@](=O)(OC[C@@]1(F)O[C@@H](n2ccc3c(N)ncnc32)[C@H](O)[C@@H]1O)Oc1ccccc1

Result string:
1 to 10 µM
> 99 µM
10 to 99 µM

Would you mind listing CC50 at 72 h for each of the following molecules?
1. CC(C)C(=O)OC[C@@]1(F)O[C@@H](n2ccc3c(N)ncnc32)[C@H](OC(=O)C(C)C)[C@@H]1OC(=O)C(C)C
2. Nc1nc2c(ncn2[C@H]2C[C@H](O)[C@@](F)(CO)O2)c(=O)[nH]1
3. CO[C@]1(CO)O[C@@H](c2ccc3c(N)ncnn23)[C@](C)(O)[C@@H]1O
4. COc1ncnc2c1c(F)cn2[C@@H]1O[C@](F)(CO)[C@@H](O)[C@H]1O
5. N#Cc1cn([C@@H]2O[C@](F)(CO)[C@@H](O)[C@H]2O)c2nc[nH]c(=O)c12

Result string:
1 to 10 µM
> 99 µM
> 99 µM
1 to 10 µM
> 99 µM

Provide reported CC50 at 72 h for each item, in the same order as listed.
1. N#Cc1ncnc2c1ccn2[C@@H]1O[C@](F)(COC(=O)c2ccccc2)[C@@H](O)[C@H]1OC(=O)c1ccccc1
2. CCOc1nc(N)nc2c1ncn2[C@@H]1O[C@](F)(CO)[C@@H](O)C1(F)F
3. [N-]=[N+]=N[C@]1(CO)C[C@@H](O)[C@H](n2ccc3c(N)ncnc32)O1
4. N#C[C@]1(CO)O[C@@H](n2ccc3c(N)ncnc32)[C@H](O)[C@@H]1O
5. CCOc1nc(N)nc2c1ncn2[C@@H]1O[C@](F)(COP(=O)(N[C@@H](C)C(=O)OC(C)C)Oc2ccccc2)[C@@H](O)[C@@]1(C)Cl (stereo partly drawn)

Result string:
["1 to 10 µM", "> 99 µM", "> 99 µM", "> 99 µM", "10 to 99 µM"]

Hey, can you go through the list below and give me CC50 at 72 h for every item?
1. NC(=O)c1cc([C@@H]2O[C@](F)(COC(=O)c3ccccc3)[C@@H](O)[C@H]2O)n2ncnc(N)c12
2. C[C@]1(Cl)[C@H](n2cnc3c(=O)[nH]c(N)nc32)O[C@](F)(CO)[C@H]1O
3. O=c1[nH]cnc2c1c(F)cn2[C@@H]1O[C@](F)(CO)[C@@H](O)[C@H]1O
4. CCOc1nc(N)nc2c1ncn2[C@@H]1O[C@](F)(COP(=O)(N[C@@H](C)C(=O)OC(C)C)Oc2ccccc2)[C@@H](O)C1(F)F (stereo partly drawn)
5. OC[C@]1(F)O[C@@H](n2ccc3c(Cl)ncnc32)[C@H](O)[C@@H]1O
6. C#Cc1nc(N)c2ncn([C@@H]3O[C@](F)(CO)[C@@H](O)[C@H]3O)c2n1

Result string:
["< 1 µM", "10 to 99 µM", "> 99 µM", "10 to 99 µM", "> 99 µM", "> 99 µM"]

// input: 5 molecules below; output: CC50 at 72 h for each
1. C[C@]1(O)[C@H](c2ccc3c(N)ncnn23)O[C@@](CO)(N=[N+]=[N-])[C@H]1O
2. CCOc1nc(N)nc2c1ncn2[C@@H]1O[C@](F)(CO)[C@@H](O)[C@]1(F)Br
3. Nc1ncnc2c1c(Cl)cn2[C@@H]1O[C@](F)(CO)[C@@H](O)[C@H]1O
4. Cc1ncnc2c1ccn2[C@@H]1O[C@](F)(CO)[C@@H](O)[C@H]1O
5. Nc1ncnc2c1ccn2[C@@H]1O[C@](F)(CO)C[C@H]1O

Result string:
1. > 99 µM
2. 10 to 99 µM
3. < 1 µM
4. 10 to 99 µM
5. 10 to 99 µM

Data origin: patent US20260325561A1
